# Test system: B16
# Protocol text: Inhibition of RNA synthesis in mouse B16 cells
# Type: functional, cell-based
Property label: pIC50
Scale: pIC50 equals -log10([C]), with [C] in mol/L.

Query: What does the record list as pIC50 for O=c1c(O)cccc(O)c1O ?
Response: 4.05

###

# Target under test: Dopamine beta-hydroxylase (Homo sapiens, UniProt P09172)
# Sequence (P09172 whole entry): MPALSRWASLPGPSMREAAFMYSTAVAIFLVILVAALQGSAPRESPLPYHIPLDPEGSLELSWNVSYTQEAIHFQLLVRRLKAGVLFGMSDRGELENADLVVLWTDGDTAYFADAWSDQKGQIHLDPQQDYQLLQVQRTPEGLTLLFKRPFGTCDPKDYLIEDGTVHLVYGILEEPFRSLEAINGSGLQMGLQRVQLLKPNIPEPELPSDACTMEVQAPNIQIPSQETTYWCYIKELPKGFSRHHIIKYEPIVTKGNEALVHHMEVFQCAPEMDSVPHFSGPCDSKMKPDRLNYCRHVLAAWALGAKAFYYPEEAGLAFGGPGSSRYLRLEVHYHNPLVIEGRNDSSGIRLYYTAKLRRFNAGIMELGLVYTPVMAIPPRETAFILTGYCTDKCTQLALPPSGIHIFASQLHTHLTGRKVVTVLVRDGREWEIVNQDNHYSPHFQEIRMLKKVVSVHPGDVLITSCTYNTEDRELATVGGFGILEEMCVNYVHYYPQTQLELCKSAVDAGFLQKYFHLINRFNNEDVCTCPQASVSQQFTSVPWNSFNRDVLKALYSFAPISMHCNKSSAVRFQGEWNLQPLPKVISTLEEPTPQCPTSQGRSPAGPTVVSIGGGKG
Property label: pIC50
Answer as the number alone; pIC50 is minus log10 of concentration in mol/L.

Line notation	pIC50
O=c1c(O)cccc(O)c1O	5.52
O=c1c(O)ccccc1O	5.70

Could you now consider this next molecule?
Query: Look up pIC50: O=c1cccccc1O
Response: 5.70
